measurement target: T1, His-tagged PD-L1 ECD protein (ACROBiosystems) (human, UniProt Q9NZQ7 19-238)
T1 construct: Bought protein; also called PD-L1-His; PD-L1/His; not shown: His tag
T1 sequence (Q9NZQ7 19-238): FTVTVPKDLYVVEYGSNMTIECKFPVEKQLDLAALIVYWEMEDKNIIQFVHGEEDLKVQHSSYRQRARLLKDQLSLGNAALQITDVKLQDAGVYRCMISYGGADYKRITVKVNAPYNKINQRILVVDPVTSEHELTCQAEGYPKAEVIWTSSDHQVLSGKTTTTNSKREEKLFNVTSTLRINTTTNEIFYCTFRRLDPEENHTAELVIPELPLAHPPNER
experimental details: SPR, supernatant IgG captured, PD-L1-His analyte
pKd: −log10 of the molar value.

# binder, pKd
data = [
    ("29A8_chimeric (antibody, human IgG1, kappa, N297A, V domains shown, Human IgG1 with effector-less Fc mutations, human kappa; also called chimeric 29A8H8C7) VH: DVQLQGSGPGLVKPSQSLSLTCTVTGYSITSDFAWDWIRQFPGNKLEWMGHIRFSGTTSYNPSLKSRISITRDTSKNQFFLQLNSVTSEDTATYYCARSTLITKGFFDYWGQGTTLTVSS VL: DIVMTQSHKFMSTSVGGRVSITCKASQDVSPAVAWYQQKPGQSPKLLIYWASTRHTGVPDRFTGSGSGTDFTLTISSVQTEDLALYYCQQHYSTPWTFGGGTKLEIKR", 9.60),
    ("29A8_VH5-VL1.M1 (antibody, human IgG1, kappa, N297A, V domains shown, Humanized, hIgG1 effector-less Fc, kappa; see recheck on K24R in the .M1 light chain) VH: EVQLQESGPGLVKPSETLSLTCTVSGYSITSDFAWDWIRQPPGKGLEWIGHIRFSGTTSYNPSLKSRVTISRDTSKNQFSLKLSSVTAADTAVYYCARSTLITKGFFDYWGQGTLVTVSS VL: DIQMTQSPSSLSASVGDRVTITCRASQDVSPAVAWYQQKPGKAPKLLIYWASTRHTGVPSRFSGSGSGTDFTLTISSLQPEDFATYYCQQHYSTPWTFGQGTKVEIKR", 9.12),
    ("29A8_VH3-VL1.M1 (antibody, human IgG1, kappa, N297A, V domains shown, Humanized, hIgG1 effector-less Fc, kappa; see recheck on K24R in the .M1 light chain) VH: EVQLQESGPGLVKPSETLSLTCTVSGYSITSDFAWDWIRQFPGKGLEWMGHIRFSGTTSYNPSLKSRITISVDTSKNQFFLKLSSVTAADTATYYCARSTLITKGFFDYWGQGTLLTVSS VL: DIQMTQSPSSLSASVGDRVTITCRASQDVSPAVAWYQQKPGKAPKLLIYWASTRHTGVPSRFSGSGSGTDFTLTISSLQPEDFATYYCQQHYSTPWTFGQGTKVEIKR", 8.96),
    ("29A8_VH2-VL1.M1 (antibody, human IgG1, kappa, N297A, V domains shown, Humanized, hIgG1 effector-less Fc, kappa; see recheck on K24R in the .M1 light chain) VH: EVQLQESGPGLVKPSETLSLTCTVSGYSITSDFAWDWIRQFPGKGLEWMGHIRFSGTTSYNPSLKSRITISVDTSKNQFSLKLSSVTAADTAVYYCARSTLITKGFFDYWGQGTLVTVSS VL: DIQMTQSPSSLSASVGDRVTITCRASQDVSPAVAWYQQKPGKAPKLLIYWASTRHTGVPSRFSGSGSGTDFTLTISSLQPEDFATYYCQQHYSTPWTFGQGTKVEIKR", 8.89),
]

Value source: patent US20220135687A1
